Data origin: ChEMBL document CHEMBL3988442

studyTarget: Sialic acid-binding Ig-like lectin 9 (Homo sapiens) (UniProt Q9Y336)
Sequence (Q9Y336 whole entry): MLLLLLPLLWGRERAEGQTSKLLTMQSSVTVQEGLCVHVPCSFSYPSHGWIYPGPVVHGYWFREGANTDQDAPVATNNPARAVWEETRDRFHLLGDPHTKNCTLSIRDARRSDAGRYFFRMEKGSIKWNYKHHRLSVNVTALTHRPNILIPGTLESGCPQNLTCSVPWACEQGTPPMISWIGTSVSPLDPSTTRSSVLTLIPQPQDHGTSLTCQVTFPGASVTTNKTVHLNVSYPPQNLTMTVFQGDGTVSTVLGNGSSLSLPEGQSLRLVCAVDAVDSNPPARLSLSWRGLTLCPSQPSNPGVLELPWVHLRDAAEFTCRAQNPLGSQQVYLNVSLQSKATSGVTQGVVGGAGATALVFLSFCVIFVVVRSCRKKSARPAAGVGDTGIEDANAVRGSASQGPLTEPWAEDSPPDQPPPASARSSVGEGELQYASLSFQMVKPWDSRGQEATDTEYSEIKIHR
protocolDetails: Hs-Siglec9 ALPHAscreen SOP 20170721
Design: scale not given: direction of the effect not stated beside the values
protocolConditions: 10 µM
Please go through the items and note down their Percent Effect.
One number for each entry, in %.

Please review the following examples before continuing.
O=C(NC1CCCC1)N1CCCC(c2nccn2Cc2ccncc2)C1 (stereo unspecified) | 9.67
COC(=O)c1ccc(N2CCN(CCC(=O)NC(N)=O)C(C)C2)cc1 (stereo unspecified) | 0.77
CCN1CCN(Cc2ccnc(-c3cccnc3)n2)CC1 | 1.94
Cc1[nH]c(=O)c(C#N)cc1C(=O)N1C[C@@H](CN2CCCC2)C[C@H](CO)C1 | -1.68
CCN1CCN(CC(O)c2ccc(F)cc2)CC1 (stereo unspecified) | 3.74

# batch: return Percent Effect for each of the 6 compounds below
1. CC(=O)c1cccc(OCCCC(=O)NCC2CCCN2C)c1 (stereo unspecified)
2. CCOC(=O)[C@]12CCCN(Cc3nccs3)C[C@H]1CN(C(C)=O)C2
3. COc1ccc(CCC(=O)N2CCCC2Cn2cc(C)cn2)cc1F (stereo unspecified)
4. O=C(NC1(c2nnn(CCO)n2)CCCC1)c1ccccc1
5. c1nc(COCC2CC2)c2n1CCCN(CC1CC1)C2
6. Cc1csc([C@@H]2C[C@@H]3CCN(Cc4cnn(C)c4)C[C@H]3O2)n1

Response line:
14.8
-4.79
2.46
17.4
3.77
1.83
